target: FGR (human); test: radiometric filter-binding kinase assay, Kinase HotSpot; settings: compound 0.5 µM; ATP 10 µM
assay readout: residual activity (%)
Numbers only, in %.

Example results:
CC(C)N(CCC(=O)c1ccc2ccccc2c1)Cc1ccccc1
94.2
Oc1cccc(-c2nc(N3CCOCC3)c3oc4ncccc4c3n2)c1
94.8
Nc1ccc2ncnc(NCCc3ccc(Oc4ccccc4)cc3)c2c1
101
CC[n+]1c(/C=C/N(C)c2ccccc2)n(-c2ccccc2)c2ccc(-c3nc4ccccc4s3)cc21
94.1
Cc1ccc(Nc2nccc(N(C)c3ccc4c(C)n(C)nc4c3)n2)cc1S(N)(=O)=O
35.8
CO[C@H]1CC2CC[C@@H](C)[C@@](O)(O2)C(=O)C(=O)N2CCCC[C@H]2C(=O)OC([C@H](C)C[C@@H]2CC[C@@H](O)[C@H](OC)C2)CC(=O)[C@H](C)/C=C(\C)[C@@H](O)[C@@H](OC)C(=O)[C@H](C)C[C@H](C)/C=C/C=C/C=C/1C (stereo partly specified)
94.5
Cc1ccc(NC2=CC(=O)c3sc(C)nc3C2=O)cc1
85.3
CC(=O)c1ccc(N2CCOCC2)cc1O
95.6

Record residual activity per entry; entries follow.
1. CCN(CC)CCNC(=O)c1c(C)[nH]c(/C=C2\C(=O)Nc3ccc(Cl)cc32)c1C
2. O=C1Nc2ccc(Cl)cc2/C1=C/c1cc(Cl)c(O)c(Cl)c1
3. c1ccc(-c2n[nH]c3c2oc2ccccc23)cc1
4. CCOC(=O)c1c(C)[nH]c(/C=C2\C(=O)Nc3ccccc32)c1C
5. O=c1cc(N2CCOCC2)oc2c1ccc1ccccc12
6. Nc1ncnc2[nH]nc(Nc3ccc(F)cc3)c12
7. Nc1cccc(-c2cc3c(Oc4cccc(O)c4)ncnc3[nH]2)c1

1. 11.5
2. 84.8
3. 116
4. 79.3
5. 94.6
6. 89.5
7. 5.28

Values from the kinase profiling compilation of Christmann-Franck et al. (2016)
